Provenance of the data: patent US20140303164A1

Experiment: Test B: Cytotoxicity Assay
Assay type: cell-based
Conditions: human, uninfected MT-4 cells, same protocol as Test A
Reported CC50 at 5 days values follow for various compounds
Please respond with the number in µM and leave the unit unwritten.

Consider the worked cases shown below.
>  <compound>
Cn1nc(NS(C)(=O)=O)c2c(Cl)ccc(-c3ccc(C#CC(C)(O)C(F)F)nc3[C@H](Cc3cc(F)cc(F)c3)NC(=O)Cn3nc(C(F)(F)F)c4c3C(F)(F)[C@@H]3C[C@H]43)c21 (some centres unmarked) [Compound 157G]

>  <measured-quantity>
CC50 at 5 days

>  <data-value>
10.9

$$$$
>  <compound>
CCN1CCN(CC(=O)N[C@@H](Cc2cc(F)cc(F)c2)c2nc(C#CC(C)(C)O)ccc2-c2ccc(Cl)c3c(NS(C)(=O)=O)nn(C)c23)CC1

>  <measured-quantity>
CC50 at 5 days

>  <data-value>
15.4

$$$$
>  <compound>
C#Cc1ccc(-c2ccc(Cl)c3cnn(C)c23)c([C@H](Cc2cc(F)cc(F)c2)NC(=O)Cn2nc(C(F)F)c3c2C(F)(F)[C@@H]2C[C@H]32)n1 [Compound 136D]

>  <measured-quantity>
CC50 at 5 days

>  <data-value>
7.43

$$$$

Continue with the next compound.
Please report the recorded CC50 at 5 days for Cn1nc(NS(N)(=O)=O)c2cccc(-c3ccc(C#CC(C)(C)O)nc3[C@H](Cc3cc(F)cc(F)c3)NC(=O)Cn3nc(C(F)(F)F)c4c3C(F)(F)[C@@H]3C[C@H]43)c21 . 6.82
